Experiment: Apparent permeability across basolateral to apical side in human Caco2 cells at 5 uM measured after 120 mins
Assay type: ADME, cell-based
Conditions: Caco-2

{"record smiles": "NC(=O)c1cccc2cc(C(=O)N3CCN(c4nc(-c5cnc(NC(=O)CN6CCOCC6)cc5C(F)(F)F)nc(N5CCOCC5)n4)CC3)oc12", "Papp B→A at 2 h, 5 µM / nm/s": 221}

* * *

Test: Elimination rate constant in human liver microsomes measured after 1 hr
Assay type: ADME, Microsome

{"record smiles": "NC(=O)c1cccc2cc(C(=O)N3CCN(c4nc(-c5cnc(NC(=O)CN6CCOCC6)cc5C(F)(F)F)nc(N5CCOCC5)n4)CC3)oc12", "k el at 1 h [s⁻¹]": 0.000122}

* * *

Test: Intrinsic clearance in dog liver microsomes measured after 1 hr
Assay type: ADME, Canis lupus familiaris, Microsome
Details: read-out: CLH

{"record smiles": "NC(=O)c1cccc2cc(C(=O)N3CCN(c4nc(-c5cnc(NC(=O)CN6CCOCC6)cc5C(F)(F)F)nc(N5CCOCC5)n4)CC3)oc12", "microsomal CLint / µL/min/mg": 29.3}

* * *

Attribute: inhibition
Biological target: Poly [ADP-ribose] polymerase 1 (Homo sapiens)
Sequence (P09874 whole entry): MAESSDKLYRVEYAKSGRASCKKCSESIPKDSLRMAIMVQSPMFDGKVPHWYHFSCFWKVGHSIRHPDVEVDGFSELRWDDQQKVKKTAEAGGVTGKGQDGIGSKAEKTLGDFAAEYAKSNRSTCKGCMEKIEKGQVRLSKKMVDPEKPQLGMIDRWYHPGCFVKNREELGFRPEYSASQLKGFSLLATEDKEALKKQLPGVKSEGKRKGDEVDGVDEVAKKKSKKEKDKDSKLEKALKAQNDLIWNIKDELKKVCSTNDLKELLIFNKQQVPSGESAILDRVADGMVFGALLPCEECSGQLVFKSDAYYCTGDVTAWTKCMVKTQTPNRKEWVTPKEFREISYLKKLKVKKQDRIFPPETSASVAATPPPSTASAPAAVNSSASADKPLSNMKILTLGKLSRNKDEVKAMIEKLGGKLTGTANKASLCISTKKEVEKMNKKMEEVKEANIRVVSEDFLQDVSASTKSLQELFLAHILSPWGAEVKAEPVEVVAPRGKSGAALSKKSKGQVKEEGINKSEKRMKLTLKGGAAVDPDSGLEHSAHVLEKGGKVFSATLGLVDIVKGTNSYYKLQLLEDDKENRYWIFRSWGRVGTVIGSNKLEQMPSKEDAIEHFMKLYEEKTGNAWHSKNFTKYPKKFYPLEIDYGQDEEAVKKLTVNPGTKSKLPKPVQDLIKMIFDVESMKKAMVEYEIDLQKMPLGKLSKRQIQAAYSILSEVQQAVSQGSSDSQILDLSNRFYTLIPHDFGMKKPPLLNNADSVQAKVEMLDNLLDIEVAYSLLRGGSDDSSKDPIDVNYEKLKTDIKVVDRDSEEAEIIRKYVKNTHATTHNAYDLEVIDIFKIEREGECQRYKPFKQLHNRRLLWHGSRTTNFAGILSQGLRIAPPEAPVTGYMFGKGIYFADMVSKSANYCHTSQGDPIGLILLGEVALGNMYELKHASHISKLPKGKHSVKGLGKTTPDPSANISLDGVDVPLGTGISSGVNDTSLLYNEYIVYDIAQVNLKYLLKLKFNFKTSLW
Conditions: dose 10.0 nM
Description: Inhibition of PARP1 (unknown origin) at 10 nM relative to control

{"record smiles": "NC(=O)c1cccc2cc(C(=O)N3CCN(c4cc(-c5cnc(N)cc5C(F)(F)F)nc(N5CCOCC5)n4)CC3)oc12", "inhibition": "51%"}
{"record smiles": "NC(=O)c1cccc2cc(C(=O)N3CCN(c4nc(N5CCOCC5)nc(-n5c(C(F)F)nc6ccccc65)n4)CC3)oc12", "inhibition": "36%"}
{"record smiles": "NC(=O)c1cccc2cc(C(=O)N3CCN(c4nc(-c5ccc(N)nc5)nc(N5CCOCC5)n4)CC3)oc12", "inhibition": "61%"}

Origin of the recorded values: ChEMBL document CHEMBL4732120
